experiment: Microsomal stability, rat and human liver microsomes; type: in vitro ADME; settings: rat and human hepatic microsomes

# MOLECULE, metabolic stability in microsomes
rows = [
    ("COc1cc2[nH]c(C)c(-c3ccc(Oc4ccc(Cl)cc4)cc3)c(=O)c2cc1Cl [Compound 20c]", "metabolically stable"),
    ("COc1cc2[nH]c(C)c(-c3ccc(Oc4ccc(F)cc4)cc3)c(=O)c2cc1Cl [Compound 20d]", "metabolically stable"),
    ("COc1cc2[nH]c(C)c(-c3ccc(Oc4ccc(C(F)(F)F)cc4)cc3)c(=O)c2cc1Cl [Compound 20b]", "metabolically stable"),
]

###

system: P. falciparum Tm93-C1088 (atovaquone resistant clinical isolate); assay: SYBR Green I parasite growth inhibition, P. falciparum Tm93-C1088; assay type: cell-based; conditions: Plasmodium falciparum, 72 h, read-out: EC50 TM93-C1088 (WRAIR)
QUANTITY_NAME: EC50 (nM)
Dear colleague, please return just the value in nM, with no unit written.

Query `COc1cc2[nH]c(C)c(-c3ccc(Oc4ccc(OC(F)(F)F)cc4)cc3)c(=O)c2cc1Cl` yields EC50 of 1
